Reference source: a melting point compilation (Tetko et al.; mined from patent text by program, amines drawn as free bases though some values may be those of a salt)

Measured melting point of individual entries

>  <MOLECULE>
CCCCC1(N(C)C)CC=C(c2[nH]c3ccccc3c2CCNC(=O)CC(C)(C)C)CC1 (stereo unspecified)

>  <melting point>
139 to 142 °C

$$$$
>  <MOLECULE>
CCN(CC)CCN1C(=O)c2cscc2N(C)c2ccccc21

>  <melting point>
92 to 93 °C

$$$$
>  <MOLECULE>
COc1ccnc(C(=O)c2[nH]c3cc(Cl)ccc3c2N)c1

>  <melting point>
195 to 196 °C

$$$$
>  <MOLECULE>
O=C(Nc1nccs1)c1ccc(-c2ccc3nnn(Cc4ccc5ncccc5c4)c3n2)cc1F

>  <melting point>
204 to 206 °C

$$$$
>  <MOLECULE>
OCc1cn(-c2ccc(F)c(Cl)c2)cn1

>  <melting point>
130 to 135 °C

$$$$
>  <MOLECULE>
NS(=O)(=O)c1nc2ccc(OC(=O)c3ccccc3)cc2s1

>  <melting point>
208 to 210 °C

$$$$
>  <MOLECULE>
CC(C)(C)c1cc(SCCc2nnco2)cc(C(C)(C)C)c1O

>  <melting point>
87.5 to 89 °C

$$$$
>  <MOLECULE>
COC/C(=N/O)c1ccc(Sc2cc(F)cc(C3(OC)CCOCC3)c2)cc1

>  <melting point>
155 °C

$$$$
>  <MOLECULE>
CC(c1oc2ccccc2c(=O)c1-c1cccc(F)c1)n1nc(-c2ccc3c(c2)CCO3)c2c(N)ncnc21 (stereo unspecified)

>  <melting point>
238 to 241 °C

$$$$
>  <MOLECULE>
Clc1cccc(C(c2ccc3[nH]cnc3c2)n2ccnc2)c1 (stereo unspecified)

>  <melting point>
108 °C

$$$$
>  <MOLECULE>
COc1ccnc(CO)c1OC

>  <melting point>
87 to 89 °C

$$$$
>  <MOLECULE>
N#CN=c1ccccn1C1=CC(CF)(CF)Oc2ccc(C(F)(F)C(F)(F)F)cc21

>  <melting point>
196 to 198 °C

$$$$
>  <MOLECULE>
O=[N+]([O-])c1cccc2cncc(Br)c12

>  <melting point>
172 to 174 °C

$$$$
>  <MOLECULE>
CNC(=O)N1CCC(Oc2c(F)c(F)c(F)c(F)c2F)(c2ccccc2)CC1

>  <melting point>
87 to 89 °C

$$$$
>  <MOLECULE>
O=C1CCC(n2cnc3ccc(Cl)cc3c2=O)C(=O)N1 (stereo unspecified)

>  <melting point>
302 to 305 °C

$$$$
>  <MOLECULE>
CC(C)(C)c1cc(C(=O)Nc2ccc(Cl)c(C(=O)O)c2)cc(C(C)(C)C)c1O

>  <melting point>
265 to 267 °C

$$$$
>  <MOLECULE>
C=CS(=O)(=O)N1CCC[C@H]1C(=O)OC(C)(C)C

>  <melting point>
84 to 87 °C

$$$$
>  <MOLECULE>
NC(=NCC(F)(F)F)Nc1ccnc(CCCCO)n1

>  <melting point>
135 to 136 °C

$$$$
>  <MOLECULE>
Cc1cc(NC(=O)C2=C(O)c3ccccc3S(=O)(=O)CC2)no1

>  <melting point>
226 to 228 °C

$$$$
>  <MOLECULE>
CC(C)c1cc(OC2CN(C(c3ccccc3)c3ccccc3)C2)cc2c1C(=O)N(COC(=O)c1c(Cl)cccc1Cl)S2(=O)=O

>  <melting point>
205 to 207 °C

$$$$
>  <MOLECULE>
COc1ccc2c(Cl)cc3nc(C(=O)O)cn3c2c1

>  <melting point>
277 to 278 °C

$$$$
>  <MOLECULE>
CCN1c2ncccc2C(=O)N(C)c2ccc(-c3cccn3C(C)=O)nc21

>  <melting point>
106 to 108 °C

$$$$
>  <MOLECULE>
CCOC(=O)c1[nH]c2cc(-c3ccccc3)ccc2c1N

>  <melting point>
181 to 183 °C

$$$$
>  <MOLECULE>
CCCc1c(O)ccc(C(=O)c2ccccc2O)c1O

>  <melting point>
110 to 113 °C

$$$$
>  <MOLECULE>
C=CCOc1ccc(OCc2ccccc2)cc1

>  <melting point>
56 to 57 °C

$$$$
>  <MOLECULE>
CON=C1CN(c2c(F)cc3c(=O)c(C(=O)O)cn(C4CC4)c3c2OC)CC12CC2

>  <melting point>
219 to 221 °C

$$$$
>  <MOLECULE>
CCOC(=O)c1cccc(NC(=O)CN2C(=O)c3ccccc3C2=O)c1

>  <melting point>
215 °C

$$$$
>  <MOLECULE>
CCC(=O)N1CCSc2cccc(Cl)c2C1

>  <melting point>
55 to 57 °C

$$$$
>  <MOLECULE>
COc1cc(C)c2ccc(=O)[nH]c2n1

>  <melting point>
214 to 216 °C

$$$$
>  <MOLECULE>
N#Cc1cccc(C2=NOC3(C2)OC(=O)c2ccccc23)c1 (stereo unspecified)

>  <melting point>
134 to 137 °C

$$$$
>  <MOLECULE>
CCCCCC=CCC=CCCCCCCCCBr

>  <melting point>
35 °C

$$$$
>  <MOLECULE>
CC(C)(C)OC(=O)NNc1ccc(N)cn1

>  <melting point>
140 to 142 °C

$$$$
>  <MOLECULE>
COc1cc(OCc2ccccc2)ccc1C(O)c1cc(Cl)ccc1N (stereo unspecified)

>  <melting point>
101 to 103 °C

$$$$
>  <MOLECULE>
CCOC(=O)NN=Cc1c[nH]c(-c2ccccc2)n1

>  <melting point>
196 to 200 °C

$$$$
>  <MOLECULE>
CC(C)(C)OC(=O)CON=C1CC(=NOCC(=O)OC(C)(C)C)c2ccccc2-c2ccccc21

>  <melting point>
105 to 107 °C

$$$$
>  <MOLECULE>
CCCCCCCCCCC#CC#CCCCCCCCCC(=O)OC(=O)CCCCCCCCC#CC#CCCCCCCCCCC

>  <melting point>
58 to 59.5 °C

$$$$
>  <MOLECULE>
CCCc1nnc(C(Cc2ccc(-c3cccc(CN(C)C(=O)c4ccccc4)c3)cc2)Nc2ccccc2C(=O)c2ccccc2)o1 (stereo unspecified)

>  <melting point>
65 °C

$$$$
>  <MOLECULE>
COC(=O)c1nc(-c2ccc(C(F)(F)F)cc2)nc(N)c1Cl

>  <melting point>
204 to 205 °C

$$$$
>  <MOLECULE>
CCCCCCCCCCCCCCCCCCOCC(CBr)OCCCCCCCCCCCCCCCCCC (stereo unspecified)

>  <melting point>
38 to 38.8 °C

$$$$
>  <MOLECULE>
CC(C)(C)OC(=O)CCc1ccnc(-c2nc(=O)c3ccc(Cl)cc3s2)c1

>  <melting point>
152 °C

$$$$
>  <MOLECULE>
O=C1NC(=O)C(Cc2ccc(OCc3cscn3)cc2)S1 (stereo unspecified)

>  <melting point>
151 to 153 °C

$$$$

###

Quick reference for melting point among some compounds
MEASUREMENT_LABEL: melting point

>  <COMPOUND>
ClCc1ccc(OCCC(c2ccccc2)(c2ccccc2)c2ccccc2)cc1

>  <REPORTED_RESULT>
91 to 95 °C

$$$$
>  <COMPOUND>
C[C@@H](OS(C)(=O)=O)C(=O)N1C(=O)N(C)C[C@H]1C(=O)OC(C)(C)C

>  <REPORTED_RESULT>
97 to 100 °C

$$$$
>  <COMPOUND>
CCOC(=O)C(=Cc1ccc(NC)cc1[N+](=O)[O-])C(=O)OCC

>  <REPORTED_RESULT>
113 to 114 °C

$$$$
>  <COMPOUND>
COc1cc(OC)nc(NC(=O)NS(=O)(=O)c2sccc2C(CCl)OC(C)=O)n1 (centres undefined)

>  <REPORTED_RESULT>
150 to 151 °C

$$$$
>  <COMPOUND>
CCn1ncc2c(NCc3ccc(OC)cc3)c3ccccc3nc21

>  <REPORTED_RESULT>
179 to 180 °C

$$$$
>  <COMPOUND>
CC(=O)C(=O)Oc1ccc(NCc2c(F)c(F)c(C(F)(F)F)c(F)c2F)cc1C(=O)O

>  <REPORTED_RESULT>
128 °C

$$$$
>  <COMPOUND>
N#Cc1ccc(C=C(C(=O)C2CC2)C(=O)C2CC2)cc1

>  <REPORTED_RESULT>
100 to 102 °C

$$$$
>  <COMPOUND>
CCCCC(CC)COc1ccc2c(-c3ccc(C=O)cc3)c3cc(OCC(CC)CCCC)ccc3c(-c3ccc(C=O)cc3)c2c1 (centres undefined)

>  <REPORTED_RESULT>
125 to 127 °C

$$$$
>  <COMPOUND>
O=C(O)CCCCCO/N=C/c1cccnc1

>  <REPORTED_RESULT>
117 °C

$$$$
